Entries and their IC50
MEASURED_ON: P-selectin (Homo sapiens, UniProt P16109)
Construct: P-selectin is isolated from human platelet lysates
Sequence (P16109 42-830): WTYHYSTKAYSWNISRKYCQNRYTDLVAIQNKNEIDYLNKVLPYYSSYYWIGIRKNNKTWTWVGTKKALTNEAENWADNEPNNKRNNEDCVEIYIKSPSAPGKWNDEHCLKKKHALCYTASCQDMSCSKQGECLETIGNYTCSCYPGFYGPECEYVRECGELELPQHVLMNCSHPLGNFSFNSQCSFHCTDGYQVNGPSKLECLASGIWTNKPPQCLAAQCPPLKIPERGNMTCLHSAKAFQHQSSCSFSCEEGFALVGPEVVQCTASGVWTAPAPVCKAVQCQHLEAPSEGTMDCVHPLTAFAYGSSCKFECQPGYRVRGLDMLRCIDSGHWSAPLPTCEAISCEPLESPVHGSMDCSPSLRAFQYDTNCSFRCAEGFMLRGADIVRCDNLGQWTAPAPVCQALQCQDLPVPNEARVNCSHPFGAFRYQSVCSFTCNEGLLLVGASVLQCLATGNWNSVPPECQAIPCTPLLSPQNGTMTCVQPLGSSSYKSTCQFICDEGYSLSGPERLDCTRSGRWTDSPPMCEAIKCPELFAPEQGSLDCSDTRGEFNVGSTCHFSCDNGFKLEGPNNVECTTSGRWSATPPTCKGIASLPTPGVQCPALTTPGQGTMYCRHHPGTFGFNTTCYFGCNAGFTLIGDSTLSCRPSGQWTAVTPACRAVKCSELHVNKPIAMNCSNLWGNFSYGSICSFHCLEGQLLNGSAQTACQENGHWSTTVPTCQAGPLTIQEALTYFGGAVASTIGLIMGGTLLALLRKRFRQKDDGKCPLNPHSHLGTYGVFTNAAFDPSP
EXPERIMENTAL_PROTOCOL: Inhibition of human neutrophil adhesion to purified P-selectin immobilized on plastic wells
STUDY_CONDITIONS: inhibiting the binding of human neutrophils to P-selectin
Where a SMILES comes first, the peptide text is derived from it. Bridges are numbered along the chain shown (N, C = ends). [ ]: non-standard residue; d: D form. Ava = NCCCCC(=O)O
Reply numerically in µM, unit not repeated.

| COMPOUND | MEASUREMENT_UNITS | IC50 |
| --- | --- | --- |
| CC[C@H](C)[C@H](NC(=O)[C@H](CCCCN)NC(=O)[C@@H](N)CCCNC(=N)N)C(=O)NCC(=O)NCC(=O)N[C@H]1CSSC[C@@H](C(N)=O)NC(=O)[C@H](Cc2c[nH]c3ccccc23)NC(=O)[C@H]([C@@H](C)O)NC(=O)[C@H](Cc2c[nH]c3ccccc23)NC1=O [(33)] (H-RKIGGCWTWC-NH2; disulfide 6-10) | µM | 468 |
| CC(C)[C@@H](NC(=O)[C@@H](Cc1c[nH]c2ccccc12)NC(=O)[C@H](NC(=O)[C@@H](Cc1c[nH]c2ccccc12)NC(=O)[C@H]1CSSC[C@@H](N)C(=O)NCC(=O)NCC(=O)N1)[C@H](C)O)C(N)=O [(28)] (H-[dC]GG[dC][dW][dT][dW][dV]-NH2; disulfide 1-4) | µM | 311 |
| CC(C)[C@@H](NC(=O)[C@@H](Cc1c[nH]c2ccccc12)NC(=O)[C@H](NC(=O)[C@@H](Cc1c[nH]c2ccccc12)NC(=O)[C@H]1CSSC[C@@H](NC(=O)[C@@H](CCCCN)NC(=O)[C@H](N)CCCNC(=N)N)C(=O)N[C@H](Cc2ccccc2)C(=O)NCC(=O)N1)[C@H](C)O)C(N)=O [(12)] (H-[dR][dK][dC][dF]G[dC][dW][dT][dW][dV]-NH2; disulfide 3-6) | µM | 48 |

Provide value of IC50 for this record tested with P-selectin (Homo sapiens, UniProt P16109): CC(C)[C@@H](NC(=O)[C@@H](Cc1c[nH]c2ccccc12)NC(=O)[C@H](NC(=O)[C@@H](Cc1c[nH]c2ccccc12)NC(=O)[C@H]1CSSC[C@@H](NC(=O)[C@@H](CCCCN)NC(=O)[C@H](N)CCCNC(=N)N)C(=O)NCCCCC(=O)N1)[C@H](C)O)C(N)=O [(21)] (H-[dR][dK][dC][Ava][dC][dW][dT][dW][dV]-NH2; disulfide 3-5)
23
